Molecular target: T1, recombinant human CLL-1 extracellular domain (ECD, amino acids 65-265) fused to an N-terminal Flag (human, UniProt Q5QGZ9 65-265)
T1 construct: The construct and the K244Q SNP are stated for the immunogen; they are not written as a piece; also called huCLL-1-Flag; huCLL-1
T1 chain: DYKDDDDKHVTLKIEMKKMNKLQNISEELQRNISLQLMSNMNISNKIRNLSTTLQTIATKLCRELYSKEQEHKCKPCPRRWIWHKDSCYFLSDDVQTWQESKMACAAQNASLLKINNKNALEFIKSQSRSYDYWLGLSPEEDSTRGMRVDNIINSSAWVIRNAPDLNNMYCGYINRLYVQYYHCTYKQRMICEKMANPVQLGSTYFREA
Assay: SPR (Biacore T200), IgG captured by anti-human Fc, CLL-1 as analyte
measured-endpoint: Kd

Prompt: Endpoint output: Kd of 21C9.L2H3S54 (antibody, V domains shown) VH: EVQLVQSGAEVKKPGASVKVSCKASGYTFTDYYLDWVRQAPGQGLEWIGRVNPYSGGTIYNQKFKGRVTLTRDTSTSTAYLELSSLRSEDTAVYYCARDHYRYDPLLDYWGQGTLVTVSS VL: DIQMTQSPSSLSASVGDRVTITCKASQDVSTAVAWFQQKPGKAPKLLIYSPSYRYTGVPSRFSGSGSGTDFTLTISSLQPEDFATYYCQQLYSTPYTFGQGTKVEIK . Value?
Completion: 286 nM

Prompt: Also need 6E7.L4H1eE54 (antibody, V domains shown, IgG) VH: EVQLVQSGAEVKKPGASVKVSCKASGYSFTDYYMHWVRQAPGQGLEWIGRINPYEGAAFYSQNFKDRVTLTVDTSTSTAYLELSSLRSEDTAVYYCAIERGADLEGYAMDYWGQGTLVTVSS VL: DIQMTQSPSSLSASVGDRVTITCRASQSVSTSSYNYMHWYQQKPGKPPKLLIKYASNLESGVPSRFSGSGSGTDFTLTISSLQPEDFATYYCQHSWEIPLTFGQGTKVEIK , thanks.
Completion: 5.09 nM

Prompt: Moving on to the next binder: 6E7.L4H1e (antibody, V domains shown, humanized, assessed in the form of an IgG; also called humanized 6E7.L4H1e; h6E7) VH: EVQLVQSGAEVKKPGASVKVSCKASGYSFTDYYMHWVRQAPGQGLEWIGRINPYNGAAFYSQNFKDRVTLTVDTSTSTAYLELSSLRSEDTAVYYCAIERGADLEGYAMDYWGQGTLVTVSS VL: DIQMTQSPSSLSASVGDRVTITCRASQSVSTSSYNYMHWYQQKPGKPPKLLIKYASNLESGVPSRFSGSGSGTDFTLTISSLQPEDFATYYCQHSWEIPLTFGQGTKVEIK
Completion: 1.08 nM

Prompt: Continue with 21C9.L2H3A54 (antibody, V domains shown) VH: EVQLVQSGAEVKKPGASVKVSCKASGYTFTDYYLDWVRQAPGQGLEWIGRVNPYAGGTIYNQKFKGRVTLTRDTSTSTAYLELSSLRSEDTAVYYCARDHYRYDPLLDYWGQGTLVTVSS VL: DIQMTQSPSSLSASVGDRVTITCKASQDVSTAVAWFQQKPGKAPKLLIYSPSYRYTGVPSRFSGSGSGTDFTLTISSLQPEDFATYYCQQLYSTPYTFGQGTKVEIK
Completion: 622 nM

# credit: patent US20200148774A1
